Reported optical density by item:
Target: T1, Human ACVR2A (human, UniProt P27037 20-135, limits assumed); further: test concentration or dose not given here
T1 construct: also called activin receptor, type II A
T1 sequence (P27037 20-135 limits assumed): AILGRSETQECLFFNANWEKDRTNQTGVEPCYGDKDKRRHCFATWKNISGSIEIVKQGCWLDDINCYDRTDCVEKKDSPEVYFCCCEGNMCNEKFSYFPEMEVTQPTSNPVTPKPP
Test: ELISA
parameter: optical density

binder	endpointValue
373_E07 (antibody, V domains shown) VH: EVQLLESGGGLVQPGGSLRLSCAASGFTFSSYGMNWVRQAPGKGLEWVANINYNGGYTSYADSVKGRFTISRDNSKNTLYLQMNSLRAEDTAVYYCARSANWHDTALDYWGQGTLVTVSS VL: DIQMTQSPSSLSASVGDRVTITCRASQSILTYVNWYQQKPGKAPKLLIYAATSLASGVPSRFSGSGSGTDFTLTISSLQPEDFATYYCQQSYETPLTFGGGTKVEIK	3.48 OD
373_G12 (antibody, V domains shown) VH: EVQLLESGGGLVQPGGSLRLSCAASGFTFSSYSMNWVRQAPGKGLEWVSNINYNGGYTSYADSVKGRFTISRDNSKNTLYLQMNSLRAEDTAVYYCARSANWHDTALDYWGQGTLVTVSS VL: DIQMTQSPSSLSASVGDRVTITCRASQSILSYLNWYQQKPGKAPKLLIYATTSLASGVPSRFSGSGSGTDFTLTISSLQPEDFATYYCQQSYNSPLTFGGGTKVEIK	3.47 OD
368_H04 (antibody, V domains shown) VH: EVQLLESGGGLVQPGGSLRLSCAASGFTFSSYSMNWVRQAPGKGLEWVAGINYNSGYKGYADSVKGRFTISRDNSKNTLYLQMNSLRAEDTAVYYCAKSANWHDTHLDYWGQGTLVTVSS VL: DIQMTQSPSSLSASVGDRVTITCRASQSIVSYVNWYQQKPGKAPKLLIYAATSRASGVPSRFSGSGSGTDFTLTISSLQPEDFATYYCQQSYDSPLTFGGGTKVEIK	1.06 OD
